B1: LINE1-mini (parent)
chain: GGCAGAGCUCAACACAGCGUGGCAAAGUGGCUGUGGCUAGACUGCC

variants of: B1; assay: self-cleavage, relative activity (ratio to wild type); higher = more cleavage; in vitro, sequencing; the parent is a self-cleaving ribozyme
Listed variants paired with reported self-cleavage
Give the figure only, with no unit attached.

Below, 2 variants whose answers are already recorded.
INSERT INTO results (variant_label, test_value) VALUES
  ('G5A U38C', 0.09),
  ('C15U C18A', 0.09);

The reported value for A4G A14G in terms of self-cleavage is 0.2

The measured values listed here are drawn from the RNAGym collection of RNA variant scans (doi:10.7554/elife.90254).
